- test-name: 13-week rat toxicity and toxicokinetic study
- Format: in vivo
- condition-context: male, Crl:CD(SD)IGS BR, rat, in vivo, po, 25 mg/kg/day, males, 25 mg/kg/day, Day 87; read-out: AUC0-24
readout-kind: AUC(0-t) (ng·h/mL)
Give just the numeric value; ng·h/mL need not be written.

Incoming: Would you mind telling me what AUC(0-t) value was observed for Clc1ccc([C@]23CNC[C@H]2C3)cc1Cl [amitifadine] ?
Outgoing: 22000

---

- test-name: Single dose 300 mg / 450 mg pharmacokinetic, safety and tolerability study in healthy male and female subjects
- condition-context: both, human, plasma, po, 450 mg
Quick reference for Tmax among some molecules
Please report the result as a number followed by the unit.

O=C1NCC2(c3ccc(Cl)c(Cl)c3)CC12 (centres unmarked) ... 9 h

Incoming: Would you mind telling me what Tmax value was observed for Clc1ccc([C@]23CNC[C@H]2C3)cc1Cl ?
Outgoing: 2.43 h
